meta.source: paper PMC7826789

# System: ARK5
# Construct: gene NUAK1
# Run Conditions: Compound Concentration (nM):1000;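 also: KINOMEscan scanMAX binding as percent activity remaining versus control; lower means stronger binding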
# Percent Control listing for each entry below

// worked examples, Percent Control included
{"Compound": "Nc1ncnc2occ(-c3ccc(NC(=O)Nc4cc(C(F)(F)F)ccc4F)cc3)c12 [GW770249X]", "Percent Control": "100%"}
{"Compound": "Cl.O=C(O[C@H]1CN[C@H](C#Cc2cc3ncnc(Nc4ccc5c(cnn5Cc5ccccc5)c4)c3s2)C1)N1CCOCC1 [GSK200398A]", "Percent Control": "91%"}
{"Compound": "COc1ccc2[nH]c3c4[nH]c5ccc(OC)cc5c4c4c(c3c2c1)C(=O)NC4=O [GW296115X]", "Percent Control": "25%"}
{"Compound": "COC(=O)Nc1nc2ccc(Oc3ccc(NC(=O)Nc4cc(C(F)(F)F)ccc4F)cc3)cc2s1.Cl [GW693917A]", "Percent Control": "100%"}
{"Compound": "NS(=O)(=O)c1ccc(Nc2ncc(-c3ccccc3)o2)cc1 [GW572399X]", "Percent Control": "100%"}

In plain terms, C/C(Nc1ccc(S(N)(=O)=O)cc1)=C1/C(=O)Nc2ccccc21 [GW335962X] has a documented Percent Control of 100%

In plain terms, Cl.O=C(Nc1ccc(Oc2ccc3[nH]c(NC(=O)c4ccccc4)nc3c2)cc1)Nc1cc(C(F)(F)F)ccc1F [GW709042A] has a documented Percent Control of 100%

In plain terms, CCS(=O)(=O)c1ccc(OC)c(Nc2ncc(-c3cccc(F)c3)o2)c1 [GW621970X] has a documented Percent Control of 100%

----------
# System: PIM1
# Run Conditions: Compound Concentration (nM):1000
# Percent Control listing for each entry below

// worked examples, Percent Control included
{"Compound": "COc1ccc2cc(-c3c(-c4ccncc4)nc(-c4ccc(S(C)(=O)=O)cc4C)n3C)ccc2c1", "Target Under Test": "PIM1", "Percent Control": "78%"}
{"Compound": "CC(C)COC(=O)c1ccc2c(c1)/C(=C/Nc1ccc(S(N)(=O)=O)cc1)C(=O)N2 [GW416981X]", "Target Under Test": "PIM1", "Percent Control": "81%"}
{"Compound": "C[C@@H](Oc1cc(-n2cnc3ccc(OC4CCN(C)CC4)cc32)sc1C(N)=O)c1ccccc1Cl [GSK579289A]", "Target Under Test": "PIM1", "Percent Control": "19%"}
{"Compound": "CN1CCN(C(=O)c2ccc(NC(=O)Nc3ccc(N(C)c4ccnc(Nc5ccc(CS(C)(=O)=O)cc5)n4)cc3)cc2)CC1.Cl [GW830263A]", "Target Under Test": "PIM1", "Percent Control": "100%"}
{"Compound": "COc1cc2ncn(-c3cc(O[C@H](C)c4ccccc4Cl)c(C(N)=O)s3)c2cc1OC [GSK237701A]", "Target Under Test": "PIM1", "Percent Control": "88%"}

In plain terms, C/C(Nc1ccc(S(N)(=O)=O)cc1)=C1/C(=O)Nc2ccccc21 [GW335962X] has a documented Percent Control of 91%

In plain terms, CCn1c(-c2nonc2N)nc2c(C#CC(C)(C)O)nc(OCCNC)cc21.Cl has a documented Percent Control of 100%

In plain terms, COc1cc(C)c(N(C)C(=O)CN(C)C)cc1Nc1nc(Nc2cccc(F)c2C(N)=O)c2cc[nH]c2n1 has a documented Percent Control of 90%
